- System: T-47D breast
- Assay text: NCI-60 one-dose screen, 48 h
- Stated conditions: 10 µM unless noted
Compounds without any hit were thinned out: in the full panel of roughly 83,000, 20% have a hit. Calls of active or inactive are those of the source. How the source made its calls: active means growth percent below 10; inactive means the rest.
The reply should name one outcome from y = active, n = inactive

I'd appreciate the recorded outcome for Nc1nccc(=S)[nH]1 from this test. n

I'd appreciate the recorded outcome for O=C(Cn1c2ccccc2c2ccncc21)N/N=C/c1cc(O)c(O)c(O)c1 from this test. n

I'd appreciate the recorded outcome for O=C(Nc1ccc(-n2ccc3c(NC(=O)c4ccccc4)ncnc32)cc1)Nc1cccc(Cl)c1Cl from this test. n

I'd appreciate the recorded outcome for C=C1C(=O)O[C@H]2[C@H]1CC/C(COC(=O)c1cccc3ccccc13)=C\CC[C@@]1(C)O[C@@H]21 from this test. y

I'd appreciate the recorded outcome for CC(=O)c1cc2c(N)c(C(=O)Nc3cccc(Cl)c3)sc2nc1C from this test. n

I'd appreciate the recorded outcome for Nc1ncnc2c1c(-c1ccc(Oc3ccccc3)cc1)nn2C[C@@H]1SSC[C@H]1O from this test. y

I'd appreciate the recorded outcome for O=S(=O)(CCN1CCOCC1)Nc1cncc(-c2ccc3ncnc(Nc4ccc(F)c(Cl)c4)c3c2)c1 from this test. y

I'd appreciate the recorded outcome for FC(F)(F)c1cn(CC2CNC2)c2ncnc(Cl)c12 from this test. n

I'd appreciate the recorded outcome for Cc1cn(-c2nc3c(c(NCc4ccccc4)n2)COCC3)c2cccc(C(N)=O)c12 from this test. n

I'd appreciate the recorded outcome for COCCNC(C(=O)c1ccccc1)c1ccccc1 (centres undefined) from this test. n

I'd appreciate the recorded outcome for CCCCOc1c(N)cccc1C(=O)OCCN(CC)CC from this test. n

I'd appreciate the recorded outcome for CCc1cccc(-c2ccccc2)c1 from this test. n

I'd appreciate the recorded outcome for COc1cc(/C=C/C(=O)c2ccc(Oc3ncnc4ccccc34)cc2)cc(OC)c1OC from this test. n

I'd appreciate the recorded outcome for O=C(CSc1nnc(-c2ccccc2)o1)Nc1ccc(C(=O)/C=C/c2ccccc2)cc1 from this test. n

I'd appreciate the recorded outcome for CCOc1ccc(-n2c(-c3cc(OC)c(OC)c(OC)c3)nnc2-c2ccc(OC)cc2N)cc1 from this test. n

I'd appreciate the recorded outcome for Clc1ccc2c(c1)nnn1c3ncccc3c(Br)c21 from this test. n

I'd appreciate the recorded outcome for O=C(Nc1ccccc1F)Nc1ccccc1Cl from this test. n

I'd appreciate the recorded outcome for COc1ccc(/C=C2/C(=O)Nc3cc(Cl)c(-c4csc(N)n4)cc32)cc1 from this test. n

I'd appreciate the recorded outcome for CCCCC(=O)Nc1nc2ccc(SCCC)cc2s1 from this test. n

I'd appreciate the recorded outcome for CCCC(=O)Oc1ccc(/C(=C(\C)c2ccc(Cl)cc2)c2ccc(OCCN(CC)CC)cc2)cc1 from this test. y

I'd appreciate the recorded outcome for COc1cc2c(cc1OC)-c1c(oc3c4c(ccc3c1=O)OC(C)(C)C=C4)CO2 from this test. n

I'd appreciate the recorded outcome for C=CCn1c(SCC(=O)Nc2ccc(/C(C)=N\O)cc2)nnc1-c1cc(-c2ccc(OC)cc2)nc2ccccc12 from this test. y

I'd appreciate the recorded outcome for N#Cc1c2c(c(N)[nH]c1=O)C(=O)NC2(O)c1ccccc1 (centres undefined) from this test. n

I'd appreciate the recorded outcome for COc1ccc(/C=C/C(=O)c2ccc(-n3cc(CN4CCN(c5cc6c(cc5F)c(=O)c(C(=O)O)cn6C5CC5)CC4)nn3)cc2)cc1OC from this test. n

Entry source: PubChem BioAssay (NCI)
